# protocol-notes: Agonist activity at beta-adrenoceptor in guinea pig atria assessed as cardiac stimulant activity by measuring change in rate of contraction of right atrial muscle
# Type: tissue-based, Cavia porcellus, Cardiac atrium
Listing: ED25 of selected compounds
Write the answer as a number in ×10⁻⁵ M, unit excluded.

Completed entries (count: 2):
ED25 for CC(C)(C)NCC(O)c1ccc(O)c(C(O)CO)c1 (stereo unspecified) is 3

ED25 for CC(C)(C)NCC(O)c1ccc(O)c(C(O)CNC(C)(C)C)c1 (stereo unspecified) is 9.2

Now for another entry.
ED25 for CC(C)(C)NCC(O)c1ccc(O)c(C(O)CS(C)(=O)=O)c1 (stereo unspecified) is 1.4
